Target: T1, IL-1beta (UniProt P01584 117-269)
T1 construct: also called IL-1β
Test: Biacore
This listing pairs binders with measured fold difference in affinity vs parental.
Reply numerically in fold, unit not repeated.

[
  {
    "binder": "XPA23 Fab, heavy chain K31H (Fab, V domains shown) VH: EVQLLESGGGLVQPGGSLRLSCAASGFTFSHYFMFWVRQAPGKGLEWVSVISPSGGMTRYADSVKGRFTISRDNSKNTLYLQMNSLRAEDTAVYYCARVGYGGNSDYWGQGTLVTVSS VL: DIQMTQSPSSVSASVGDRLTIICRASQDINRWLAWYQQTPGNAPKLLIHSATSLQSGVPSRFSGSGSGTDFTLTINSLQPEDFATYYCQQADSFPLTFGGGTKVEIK",
    "fold difference in affinity vs parental (fold)": 1.11
  }
]

With those in mind, consider the next binder.
Provide fold difference in affinity vs parental value for the following binder: XPA23 Fab, heavy chain G56F (Fab, V domains shown) VH: EVQLLESGGGLVQPGGSLRLSCAASGFTFSKYFMFWVRQAPGKGLEWVSVISPSGFMTRYADSVKGRFTISRDNSKNTLYLQMNSLRAEDTAVYYCARVGYGGNSDYWGQGTLVTVSS VL: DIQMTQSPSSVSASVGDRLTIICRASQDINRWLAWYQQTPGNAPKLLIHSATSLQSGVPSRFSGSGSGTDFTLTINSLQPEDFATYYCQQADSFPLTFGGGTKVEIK 1.41
